B1: PDZK1 (parent)
chain: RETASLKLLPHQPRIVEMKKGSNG

variants of: B1; assay: protein stability index of a GFP-peptide fusion (GPS, HEK-293T) (PSI 1-6); higher = more stable; conditions: c terminus: a fixed tail appended;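 also: lentivirally expressed fusions sorted by FACS into six bins by GFP to DsRed ratio, PSI derived from sequencing read proportions per bin multiplied by bin number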
protein stability index listing for selected variants.
Please reply with the value in numeric form only.

Sample answers from the record:
[[record]]
residue_string = "RETASLKLLPHQPRIVEMKIGSNG [K20I]"
attribute_measured = "protein stability index"
recorded_result = 3.41

[[record]]
residue_string = "RETASLKLLPHQPRIVEVKKGSNG [M18V]"
attribute_measured = "protein stability index"
recorded_result = 3.86

[[record]]
residue_string = "RETAPLKLLPHQPRIVEMKKGSNG [S5P]"
attribute_measured = "protein stability index"
recorded_result = 3

[[record]]
residue_string = "RETASLKLLPHQPGIVEMKKGSNG [R14G]"
attribute_measured = "protein stability index"
recorded_result = 4.05

[[record]]
residue_string = "RETASLKLLPHQPRIVEMSKGSNG [K19S]"
attribute_measured = "protein stability index"
recorded_result = 3.49

[[record]]
residue_string = "RETASLKLLPHQPWIVEMKKGSNG [R14W]"
attribute_measured = "protein stability index"
recorded_result = 3.3

[[record]]
residue_string = "RETASLKLLLHQPRIVEMKKGSNG [P10L]"
attribute_measured = "protein stability index"
recorded_result = 2.88

[[record]]
residue_string = "RETASLNLLPHQPRIVEMKKGSNG [K7N]"
attribute_measured = "protein stability index"
recorded_result = 4.86


Form field: reported protein stability index of RETASLKLLPHQPRIVEMKVGSNG [K20V] 3.7

For the variant shown here, RETTSLKLLPHQPRIVEMKKGSNG [A4T] , give the reported protein stability index. 3.32
